Across several studies, compounds have been characterized by their IC50 on F1F0-ATPase (Bos taurus, UniProt P13621); a selection follows.

CCOC(=O)N[C@H]1CC[C@H](N/C(=N\C(=O)c2ccc(F)c(F)c2)NC2CC2)CC1: > 10 µM
COc1cccc(C(=O)/N=C(/NCC(C)C)Nc2cc(-c3ccc(Cl)cc3)[nH]n2)c1: < 10 µM
CCOCCCN/C(=N/C(=O)c1ccc(F)c(F)c1)Nc1[nH]nc(-c2ccc(Cl)cc2)c1F: < 10 µM
Cc1ccc(-c2cc(NC(=NC(=O)c3ccc(C(F)(F)F)cc3)NC(C)(C)C)[nH]n2)cc1F: < 10 µM
COc1ccc(-c2cc(N/C(=N\C(=O)c3cn(C)nc3C(F)(F)F)Nc3ccc(C(C)(C)C)cc3)[nH]n2)cc1F: 5 to 16 µM

Lab note: measured IC50 of CCOC(C)CN/C(=N/C(=O)c1ccc(F)c(F)c1)Nc1cc(-c2ccc(Cl)cc2)n[nH]1 (stereo not drawn) was < 10 µM

Lab note: measured IC50 of Cc1ccccc1CN/C(=N/C(=O)c1ccno1)Nc1cc(-c2ccc(F)cc2)n[nH]1 was 5 to 16 µM

====

Across several studies, compounds have been characterized by their IC50 on F1F0-ATPase (Bos taurus); a selection follows.

As a guide, the following entries are already answered.
CC(C)(C)N/C(=N/C(=O)c1cccc(C#N)c1)Nc1cc(-c2ccc(Cl)cc2)n[nH]1: < 10 µM
COc1ccc(-c2cc(NC(=NC(=O)c3cn(C)nc3C(F)(F)F)Nc3ccc(F)c(Cl)c3)[nH]n2)cc1F: < 5 µM
CCOC(=O)NC1CCC(N/C(=N\C(=O)c2ccc(Cl)cc2)Nc2cc(F)cc(Cl)c2)CC1 (stereo not shown): < 10 µM
O=C(/N=C(/Nc1cc(F)cc(Cl)c1)Nc1cc(-c2ccc(F)cc2)n[nH]1)c1ccc(F)c(F)c1: < 10 µM
CC(C)CN/C(=N/C(=O)c1ccc(F)c(F)c1)Nc1n[nH]c2cccnc12: > 16 µM
CC(N/C(=N/C(=O)c1ccc(C(F)(F)F)cc1)Nc1cc(C(F)(F)F)[nH]n1)c1ccccc1Cl (stereo not shown): < 10 µM

Please find the next compound below.
CC(C)CNC(=NC(=O)c1cn(C)nc1C(F)(F)F)Nc1cc(-c2cc(O)ccc2Cl)n[nH]1 tested on F1F0-ATPase (Bos taurus) gave IC50: < 5 µM

====

pIC50: −log10 of the molar value.
Across several studies, molecules have been characterized by their pIC50 on F1F0-ATPase (Bos taurus, UniProt P13621); a selection follows.

As a guide, the following entries are already answered.
Nc1cccc(N/C(=N\C(=O)c2cccc(C(F)(F)F)c2)Nc2cccc(C(F)(F)F)c2)n1: < 5.00
O=C(/N=c1\[nH]c2cc(C(F)(F)F)nn2c(=O)n1Cc1ccc(F)cc1Cl)c1ccc(F)c(F)c1: > 5.00
COC[C@H](C)N/C(=N/C(=O)c1cc(C)oc1C(F)(F)F)Nc1cc(-c2cc(F)cc(F)c2)n[nH]1: > 5.30
COc1ccc(-c2cc(N/C(=N\C(=O)c3ccc(Cl)c(F)c3)Nc3cc(F)cc(Cl)c3)n[nH]2)cc1: < 5.00
O=C(N=C(Nc1cc(-c2ccc(Cl)cc2)n[nH]1)NC1CCCC1)c1ccc(C(F)(F)F)cc1: > 5.00

CC(C)(C)N/C(=N/C(=O)c1ccc(C(F)(F)F)cc1)N[C@H]1CC[C@H](Nc2ncccn2)CC1 tested on F1F0-ATPase (Bos taurus, UniProt P13621) gave pIC50: < 5.00

CC(C)(C)CN/C(=N/C(=O)c1ccc(F)c(F)c1)N[C@H]1CC[C@H](NC(=O)c2cccs2)CC1 tested on F1F0-ATPase (Bos taurus, UniProt P13621) gave pIC50: > 5.00

====

Across several studies, molecules have been characterized by their IC50 on F1F0-ATPase (Bos taurus, UniProt P13621); a selection follows.

CCC(C)N/C(=N/C(=O)c1cccc(OC)c1)Nc1cc(-c2ccc(F)cc2)n[nH]1 (stereo not shown) tested on F1F0-ATPase (Bos taurus, UniProt P13621) gave IC50: < 10 µM

CCn1ccc(C(=O)/N=C(\Nc2cc(-c3ccc(F)cc3)n[nH]2)NC(C)C)n1 tested on F1F0-ATPase (Bos taurus, UniProt P13621) gave IC50: > 16 µM

O=C(N=C(Nc1cccc(O)n1)NC1CCC(C(F)(F)F)CC1)c1ccc(Cl)cc1 (stereo not shown) tested on F1F0-ATPase (Bos taurus, UniProt P13621) gave IC50: < 10 µM

O=C(N=C(Nc1cc(-c2ccccc2)[nH]n1)NC1CCOCC1)c1ccc(C(F)(F)F)cc1 tested on F1F0-ATPase (Bos taurus, UniProt P13621) gave IC50: > 10 µM

====

pIC50: −log10 of the molar value.
Across several studies, compounds have been characterized by their pIC50 on F1F0-ATPase (Bos taurus, UniProt P13621); a selection follows.

CC(C)(C)N/C(=N/C(=O)c1ccc(F)c(F)c1)Nc1n[nH]c2ccc(F)cc12: > 5.30
CC(C)(C)N/C(=N/C(=O)c1ccc(F)c(F)c1)Nc1n[nH]c2ncccc12: < 4.80
O=C(N=C(Nc1cc(F)cc(Cl)c1)Nc1cc(-c2cccc(C(F)(F)F)c2)[nH]n1)c1ccc(F)c(F)c1: > 5.00

CCOCC(C)NC(=NC(=O)c1ccc(F)cc1)Nc1cc(-c2ccc(F)cc2)n[nH]1 (stereo not shown) tested on F1F0-ATPase (Bos taurus, UniProt P13621) gave pIC50: > 5.00

CC(C)(C)CN/C(=N/C(=O)c1ccc(Cl)cc1)Nc1cccc(NS(=O)(=O)c2ccccc2C#N)n1 tested on F1F0-ATPase (Bos taurus, UniProt P13621) gave pIC50: > 5.00

COC[C@H](C)N/C(=N/C(=O)c1cn(C)nc1C(F)(F)F)Nc1cc(-c2ccc(O)cc2F)n[nH]1 tested on F1F0-ATPase (Bos taurus, UniProt P13621) gave pIC50: < 4.80

CC(C)(C)CN/C(=N/C(=O)c1ccc(Cl)cc1)Nc1cccc(NS(=O)(=O)c2cccnc2)n1 tested on F1F0-ATPase (Bos taurus, UniProt P13621) gave pIC50: > 5.00

====

Across several studies, compounds have been characterized by their IC50 on F1F0-ATPase (Bos taurus, UniProt P13621); a selection follows.

As a guide, the following entries are already answered.
O=C(/N=C(/NCC1CCO1)Nc1cc(-c2ccc(F)cc2)n[nH]1)c1ccc(F)cc1 (stereo not drawn): < 10 µM
O=C(/N=C(/Nc1cccc(Cl)c1F)N[C@H]1CC[C@H](O)CC1)c1ccc(C(F)(F)F)cc1: < 10 µM
O=C(/N=C(\Nc1cc(-c2ccc(CO)cc2)[nH]n1)NC1CCCC1)c1ccc(F)c(F)c1: > 10 µM
O=C(/N=C(/NCc1ccc(F)cc1Cl)Nc1cc(-c2ccc(F)cc2)[nH]n1)c1ccc(Cl)c(F)c1: < 10 µM
CCOC(=O)NC1CCC(N/C(=N\C(=O)c2ccc(F)c(C)c2)Nc2cc(F)cc(Cl)c2)CC1 (stereo not drawn): < 10 µM
CC(C)(C)N/C(=N\C(=O)c1ccc(Cl)c(F)c1)Nc1cccc(O)n1: < 10 µM
COC[C@H](C)N/C(=N/C(=O)c1ccc(O)cc1)Nc1cc(-c2ccc(F)cc2)n[nH]1: < 10 µM
CCS(=O)(=O)Nc1cccc(N/C(=N\C(=O)c2ccc(Cl)cc2)Nc2cc(F)cc(Cl)c2)n1: < 10 µM
CC(C)CNC(=NC(=O)c1ccc(Cl)c(F)c1)Nc1cc(-c2ccc(Cl)cc2)n[nH]1: < 10 µM
Cc1cc(C(=O)/N=C(\Nc2cc(-c3ccc(F)cc3)n[nH]2)NC(C)(C)C)ccn1: < 10 µM

Lab note: measured IC50 of O=C(/N=C(\Nc1cc(C(F)(F)F)[nH]n1)NC1CCCC1)c1ccc(Cl)cc1 was < 10 µM

Lab note: measured IC50 of COc1ccc(-c2cc(N/C(=N\C(=O)c3cn(C)nc3C(F)(F)F)Nc3cccc(F)c3)[nH]n2)cc1F was < 5 µM

Lab note: measured IC50 of COC[C@H](C)N/C(=N/C(=O)c1ccc(O)cc1)Nc1n[nH]c2cc(F)ccc12 was 5 to 16 µM

Lab note: measured IC50 of O=C(/N=C(/Nc1cc(F)cc(Cl)c1)Nc1cc(C2CC2)[nH]n1)c1ccc(Cl)c(F)c1 was < 10 µM

Lab note: measured IC50 of O=C(/N=C(/Nc1cc(F)cc(Cl)c1)Nc1cc(-c2ccccc2)n[nH]1)c1ccc(Cl)c(F)c1 was < 10 µM

====

pIC50: −log10 of the molar value.
Across several studies, molecules have been characterized by their pIC50 on F1F0-ATPase (Bos taurus, UniProt P13621); a selection follows.

O=C(/N=C(/NCc1cc(F)c(F)c(F)c1)Nc1cccc(O)n1)c1ccc(C(F)(F)F)cc1: > 5.00
O=C(/N=C(/NCc1ccccc1C(F)(F)F)Nc1cccc(NS(=O)(=O)C2CC2)n1)c1ccc(C(F)(F)F)cc1: > 5.00
CCOCCN/C(=N/C(=O)c1ccc(F)c(F)c1)Nc1n[nH]c2c(F)cccc12: < 4.80
Cc1ccc(C(=O)N=C(NCc2ccc(F)cc2Cl)Nc2cc(C(F)(F)F)n[nH]2)cc1: > 5.00
CC(C)(C)c1cc(NC(=NC(=O)c2ccc(Cl)c(F)c2)Nc2cc(-c3cc(F)cc(F)c3)n[nH]2)no1: < 5.00
CC(C)OCCCN/C(=N/C(=O)c1cccc(C#N)c1)Nc1cc(-c2ccc(Cl)cc2)n[nH]1: > 5.00

Please find the next molecule below.
Lab note: measured pIC50 of CC(C)CN/C(=N/C(=O)c1ccc(F)c(F)c1)Nc1n[nH]c2cc(C(F)(F)F)ccc12 was > 5.30
